# maps each entry to its melting point

COMPOUND: COc1cc(C(O)(C(F)(F)F)C(F)(F)F)cc(Br)c1NS(C)(=O)=O
melting point: 38 to 41 °C
//
COMPOUND: CN(C)C=Cc1ncc([N+](=O)[O-])n1CCOC(=O)c1ccccc1
melting point: 153 to 154 °C
//
COMPOUND: CSCOC1CCC2C3CCC4=CC(=O)C=CC4(C)C3(F)C(O)CC12C (stereo unspecified)
melting point: 224 to 225 °C

Notebook: Clc1nc(OC(Cl)(Cl)Cl)cc(C(Cl)(Cl)Cl)n1 , melting point read as 67 to 69 °C

Notebook: N#CCCCOc1ccc(C(=O)Nc2ccc(-n3nc(-c4cccnc4)cc3C#N)cc2)cn1 , melting point read as 190 to 191 °C

Notebook: Cc1ccc(NC(=O)Nc2ccc(Oc3cc(Cl)ncn3)cc2)cc1 , melting point read as 217 to 219 °C

Notebook: COc1ncc(CN2C(=O)C3(COc4cc5c(cc43)OCO5)c3ccccc32)s1 (stereo unspecified) , melting point read as 164 to 166 °C

Notebook: CCOC(=O)COC(=O)c1cc(S(N)(=O)=O)c(Cl)cc1NCc1ccco1 , melting point read as 46 °C

Notebook: Nc1cccc(Nc2ncnc3[nH]cc(C(=O)c4ccccc4)c23)c1 , melting point read as 280 to 282 °C

Notebook: O=[N+]([O-])c1ccccc1/C=C/c1ncon1 , melting point read as 128 °C

Notebook: C(=C\c1nc(CSc2ccc(CCCn3ccnc3)cc2)co1)/c1ccccc1 , melting point read as 74 to 75 °C

Notebook: Nc1nc2cccnc2c2c1nc(CCCO)n2CC1(O)CCOCC1 , melting point read as 237 to 238 °C

Notebook: OCCCCc1n[nH]c2ccc(C(F)(F)F)cc12 , melting point read as 74 to 76 °C

Notebook: Cc1ccc(NP(N)(N)=O)c([N+](=O)[O-])c1 , melting point read as > 180 °C

Notebook: O=C(O)c1ccc(COc2ccc3c(c2)CCN(C2CCN(C4CCC4)CC2)C3=O)cc1 , melting point read as 269 to 270 °C

====

# maps each entry to its melting point

MOLECULE: CCCc1c(OCCC2Cc3cc(CC(=O)OC)ccc3O2)ccc(C(C)=O)c1O (stereo not given)
melting point: 59 to 60 °C
//
MOLECULE: Cc1cc(-c2nc3c(Cl)cccc3c(=O)n2-c2ccc(Br)cc2)cc(C)c1OCCO
melting point: 185 to 186 °C
//
MOLECULE: CCN(CC)CC(=O)Nc1ccc(NC(=O)Nc2ccc(N(CCCl)CCCl)cc2)cc1
melting point: 209 to 211 °C
//
MOLECULE: CON(C)C(=O)NN(C(=O)Cl)c1cccc2c1OC(C)C2 (stereo not given)
melting point: 91 to 93 °C
//
MOLECULE: CCCCN1C(=O)C2C(=O)N(Cc3cc(C)ccc3C)C(=O)C(C1=O)C2(C)C
melting point: 159 to 161 °C

Please turn your attention to the following entry.
Notebook: CN(C)C=CC(=O)c1c(-c2ccc(F)cc2)nc2occn12 , melting point read as 187 to 189 °C

====

# maps each entry to its melting point

Reference set (4 entries):
SMILES_REPRESENTATION: CCc1nnc(-c2ccc(OC)cc2)n1-c1ccc(OC)c(OC)c1
melting point: 150 °C
//
SMILES_REPRESENTATION: O=c1c2ccccc2n(-c2cccc([N+](=O)[O-])c2)c2nc3ccccc3n12
melting point: 294 °C
//
SMILES_REPRESENTATION: CCOc1cc2oc(=O)c3c(c2cc1OCC)CCN(CC(C)=O)C3
melting point: 146 to 148 °C
//
SMILES_REPRESENTATION: CCCc1nn(C)c2c(Oc3ccc(F)cc3)nc(-c3ccccc3)nc12
melting point: 126 to 128 °C

Please turn your attention to the following entry.
Notebook: CON=Cc1cc(-n2c(=S)cc(C(F)(F)F)n(N)c2=O)c(F)cc1Cl , melting point read as 172 to 174 °C

====

# maps each entry to its melting point

COMPOUND: O=C(O)c1ccc(OCCCO/N=C/c2ccc(C(F)(F)F)cc2)cc1NC(=O)c1ccccc1C(F)(F)F
melting point: 147 to 148 °C
//
COMPOUND: COc1ccc2c3c(c(=O)oc2c1)CN(CC(C)=O)CC3
melting point: 123 to 125 °C

Notebook: Fc1ccc2c(c1F)OCCN2 , melting point read as 48 to 54 °C

Notebook: CCOc1ccc(-n2c(N)cc(=O)[nH]c2=S)cc1 , melting point read as 222 to 225 °C

Notebook: COc1ccc(C2(C3CCCC3=O)CCC(C(=O)O)CC2)c2c1OCCO2 (stereo not drawn) , melting point read as 200 to 201 °C

Notebook: COc1cc(C(C)C(=O)O)cc2ccc3ccccc3c(=O)c12 (stereo not drawn) , melting point read as 144 to 147 °C

Notebook: C=Cc1c(F)c(F)cc2c(=O)c(C(=O)OCC)cn(C3CC3)c12 , melting point read as 178 to 179 °C

Notebook: COc1ccc(CNc2nc(NCc3ccc(OC)cc3)c3[nH]nc(C(C)C)c3n2)cc1 , melting point read as 60 to 85 °C

Notebook: CC(=O)C(Cl)=NNc1cccc(C)c1 , melting point read as 144 to 146 °C

====

PROPERTY: melting point

Reference set (6 entries):
COMPOUND: CS(=O)(=O)c1ccc(Oc2ccc(Cc3ccccc3)cc2)cc1
melting point: 109 to 110 °C

COMPOUND: CCCc1nn(-c2ccc(C(F)(F)F)cn2)cc1CCCOc1cccc(OC(C)(C)C(=O)O)c1
melting point: 99 to 100 °C

COMPOUND: O=C(O)c1ccc2c(c1)S(=O)(=O)c1ccccc1S2
melting point: 297 to 304 °C

COMPOUND: CC(C)c1ccc2c(c1)C(O)(c1ccccn1)CC(C)(C)CO2 (stereo not given)
melting point: 72 °C

COMPOUND: O=C1CCC(c2ccc(-n3ccc(=O)cc3)cc2)=NN1
melting point: 270 to 272 °C

COMPOUND: Cn1c([N+](=O)[O-])cnc1C(N)=S
melting point: 148 to 150 °C

Notebook: COc1cc(OC)cc(N2CCN(C(=S)Nc3cc(C(C)=O)c(C)nc3OC)CC2)c1 , melting point read as 167 to 169 °C

Notebook: CC(=O)Nc1nc(-c2ccco2)c(C(=O)c2ccccn2)s1 , melting point read as 216 to 217 °C

Notebook: COC(=O)c1cc(-c2nc(CCl)c(C)o2)ccc1C , melting point read as 89 to 90 °C

Notebook: CCOCn1c(Br)c(Br)c(S(=O)(=O)C(F)(F)F)c1-c1ccc(Cl)cc1 , melting point read as 133 to 135 °C

====

# maps each entry to its melting point

Reference set (3 entries):
COMPOUND: CN1C(=O)c2ccc(NCC(O)CCl)cc2C1=O (stereo not given)
melting point: 136 to 138 °C
--
COMPOUND: COCCCS(=O)(=O)NC(=O)/C=C/c1cc(OC(C)C)nn1Cc1ccc(C(F)(F)F)cc1Cl
melting point: 138 to 139 °C
--
COMPOUND: CS(=O)(=O)c1ccc2c3c(cccc13)C(=O)N2
melting point: 242 to 243 °C

Notebook: O=C(O)c1ccc(-c2nc(-c3ccc(F)cc3)c(-c3ccncc3)[nH]2)cc1 , melting point read as 289 to 290 °C

Notebook: CCCOc1c(OC)cc([N+](=O)[O-])c2ncccc12 , melting point read as 100 to 104 °C

====

# maps each entry to its melting point

Reference set (5 entries):
MOLECULE: Cc1[nH]c(=S)n(Nc2ccc(Cl)cc2)c1-c1ccccc1
melting point: 212 to 214 °C

MOLECULE: COc1ccc(OCC(O)CCN2CCN(c3ccccc3)CC2)cc1 (stereo not given)
melting point: 103 to 105 °C

MOLECULE: COC(=O)c1c(C)sc(C)c1N
melting point: 75 to 77 °C

MOLECULE: O=c1ccc(S(=O)(=O)n2cc(Cl)c3ccccc32)n[nH]1
melting point: > 220 °C

MOLECULE: CCOC(=O)c1c(CN2CCC(C(=O)OCC)CC2)nc2sc3c(c2c1-c1ccc(OC)c(OC)c1)CCN(C(=O)c1ccc(Cl)cc1)C3
melting point: 99 to 101 °C

Notebook: OC1CCN(C(c2ccccc2)(c2ccccc2)c2ccccc2)CC1 , melting point read as 157 to 158 °C

Notebook: CC(C)Cn1c(=O)n(C)c(=O)c2c(S(=O)(=O)CCCC(=O)O)c(Cc3cccc4ccccc34)sc21 , melting point read as 174 to 175 °C

Notebook: Cc1c(-c2ccccc2)oc2c(C(=O)NCC(C)N3CCCCC3)cccc2c1=O (stereo not given) , melting point read as 106 to 108 °C

Notebook: CC(C)(C)OC(=O)NCCCCCN(OCc1ccccc1)C(=O)CCC(=O)O , melting point read as 93 to 94 °C

Notebook: COc1cc2cnc3c(c2cc1OC)Cc1c-3cc2c(c1CN(C)C)OCO2 , melting point read as 205 to 207 °C

Notebook: CS(=O)(=O)OCCNC(=O)C(O)C(Oc1ccccc1[N+](=O)[O-])c1ccccc1 (stereo not given) , melting point read as 122 to 125 °C

Notebook: c1ccc(-c2nnc(NCC3CC3)cc2-c2ccncc2)cc1 , melting point read as 199 to 200 °C

Notebook: CCOc1ccc(-n2nnnc2C(F)(F)F)cc1C=O , melting point read as 87.9 to 88.4 °C

Notebook: O=c1[nH]c(N2CCC(N3CCCCC3)CC2)cc2ccccc12 , melting point read as > 200 °C

Notebook: COc1cc(OC)c2c(=O)[nH]c(-c3ccc(OCCN4CCCC4)cc3)nc2c1 , melting point read as 226 to 227 °C

Notebook: CCOC(=O)C(=O)Nc1ncc(C)s1 , melting point read as 166 to 168 °C
